B1: library; numbered along this chain (parent)
chain: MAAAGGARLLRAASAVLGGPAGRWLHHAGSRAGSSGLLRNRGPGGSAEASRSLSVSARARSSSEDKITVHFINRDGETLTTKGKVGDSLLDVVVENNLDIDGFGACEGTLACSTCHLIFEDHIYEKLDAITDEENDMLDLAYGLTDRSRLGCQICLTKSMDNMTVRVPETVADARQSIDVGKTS

Variants of: B1
method.description: scaled log2 fold change in cell abundance, elesclomol vs control (0 = silent mean, 1 = nonsense mean) (scaled log2 ratio); higher = higher viability under elesclomol (loss of FDX1 cuproptosis function);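 further: variant abundance is its share of total variant reads in each endpoint sample, from next-generation sequencing of the integrated ORF PCR-amplified out of genomic DNA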
condition.summary: with ABC1 FDX1 KO; elesclomol 5 nM; glucose 10 mM; 14 days
Label 1.0 when scaled log2 fold change is at or above -0.07; otherwise label 0.0.

Examples with answers:
S52E: 1.0
D179C: 1.0
C155M: 1.0
A59M: 0.0
V55Y: 1.0
L110R: 1.0
K158G: 0.0
I72A: 1.0

Evaluate S184M : scaled log2 fold change at minimum -0.07?
1.0

Could you verify whether the entry V171T shows scaled log2 fold change of no less than -0.07?
0.0

# check: scaled log2 fold change of W24K is greater than or equal to -0.07
0.0
